Origin of measurements: ChEMBL document CHEMBL5523716

assay: AUC (0 to infinity) in SPF ICR mouse at 5 mg/kg,ip measured upto 24 hrs by LC-MS/MS analysis; format: ADME, organism-based; details: in vivo
property.name: AUC(0-inf) (ng·h/mL)

compound_structure_string=CCN(CC)C/C=C/C(=O)Nc1cc2c(Nc3ccc(F)c(Cl)c3)ncnc2cc1OCc1cn(CCCCCCCC(=O)N[C@H](C(=O)N2C[C@H](O)C[C@H]2C(=O)N[C@H](C)c2ccc(-c3scnc3C)cc2)C(C)(C)C)nn1 recorded_result=2830

* * *

experiment: MRT (0 to infinity) in SPF ICR mouse at 2 mg/kg,iv measured upto 24 hrs by LC-MS/MS analysis; type: ADME, organism-based; conditions: in vivo
property.name: MRT inf (min)

compound_structure_string=CCN(CC)C/C=C/C(=O)Nc1cc2c(Nc3ccc(F)c(Cl)c3)ncnc2cc1OCc1cn(CCCCCCCC(=O)N[C@H](C(=O)N2C[C@H](O)C[C@H]2C(=O)N[C@H](C)c2ccc(-c3scnc3C)cc2)C(C)(C)C)nn1 property_name="MRT inf" recorded_result=20.4
